target: α-glucosidase (Saccharomyces cerevisiae, UniProt P53341); construct: purchased Shanghai Yuanye Biotechnology Co., Shanghai, China Lot No. M23HS178879 (catalogue number not given); assay: CD spectroscopy, secondary structure of α-glucosidase (BeStSel); conditions: molar ratio 40:1, α-glucosidase 4 μM; free enzyme 14.4
Sequence (P53341 whole entry): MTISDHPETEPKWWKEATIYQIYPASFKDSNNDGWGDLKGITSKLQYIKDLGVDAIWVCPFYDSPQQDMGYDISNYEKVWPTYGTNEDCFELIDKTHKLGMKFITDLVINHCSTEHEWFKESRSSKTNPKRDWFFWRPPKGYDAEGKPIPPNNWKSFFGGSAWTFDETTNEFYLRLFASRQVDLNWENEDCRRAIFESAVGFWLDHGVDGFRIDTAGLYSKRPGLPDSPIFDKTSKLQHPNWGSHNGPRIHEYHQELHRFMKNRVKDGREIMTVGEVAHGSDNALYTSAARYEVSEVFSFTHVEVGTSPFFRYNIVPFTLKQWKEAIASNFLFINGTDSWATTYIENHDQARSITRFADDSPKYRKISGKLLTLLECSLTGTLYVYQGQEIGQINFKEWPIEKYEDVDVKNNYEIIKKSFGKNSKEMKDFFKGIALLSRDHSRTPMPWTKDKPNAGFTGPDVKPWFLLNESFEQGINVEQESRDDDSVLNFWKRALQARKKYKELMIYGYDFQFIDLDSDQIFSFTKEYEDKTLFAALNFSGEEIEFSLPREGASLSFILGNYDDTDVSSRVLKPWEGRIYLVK
Experimental endpoint: α-helix
A complete answer gives the number followed by the unit.

{"Molecule": "Oc1ccc([C@H]2COc3cc(O)ccc3C2)cc1", "Experimental endpoint": "α-helix", "Result": "8.50%"}
{"Molecule": "COc1ccc2c(c1OC)OC1c3ccc(O[C@@H]4O[C@H](CO)[C@@H](O)[C@H](O)[C@H]4O)cc3OCC21 (stereo partly drawn) [C19, astrapterocarpan-3-O-glucoside]", "Experimental endpoint": "α-helix", "Result": "43.2%"}
{"Molecule": "O=c1c(-c2ccc(O)cc2)coc2cc(O)ccc12", "Experimental endpoint": "α-helix", "Result": "14.6%"}
{"Molecule": "COc1ccc(-c2coc3cc(O[C@@H]4O[C@H](CO)[C@@H](O)[C@H](O)[C@H]4O)ccc3c2=O)cc1O [C16, calycosin-7-O-glucoside]", "Experimental endpoint": "α-helix", "Result": "12.1%"}
{"Molecule": "C[C@@H]1O[C@@H](OC[C@H]2O[C@@H](Oc3c(-c4ccc(O)c(O)c4)oc4cc(O)cc(O)c4c3=O)[C@H](O)[C@@H](O)[C@@H]2O)[C@H](O)[C@H](O)[C@H]1O", "Experimental endpoint": "α-helix", "Result": "9.30%"}

# context switch: different molecule, same α-helix
The recorded α-helix for `O=c1c(O)c(-c2ccc(O)cc2)oc2cc(O)cc(O)c12` is 9.70%
